Molecular target: T1, biotin-labeled human PAD4 protein (human, UniProt Q9UM07 1-663, biotin on the Avi tag (biotin ligase BirA))
T1 construct: also called Avi tag-human PAD4; biotin-labeled PAD4; not shown: Avi tag left on the N-terminal side after the GST tag was cleaved with PreScission Protease
T1 sequence (Q9UM07 whole entry): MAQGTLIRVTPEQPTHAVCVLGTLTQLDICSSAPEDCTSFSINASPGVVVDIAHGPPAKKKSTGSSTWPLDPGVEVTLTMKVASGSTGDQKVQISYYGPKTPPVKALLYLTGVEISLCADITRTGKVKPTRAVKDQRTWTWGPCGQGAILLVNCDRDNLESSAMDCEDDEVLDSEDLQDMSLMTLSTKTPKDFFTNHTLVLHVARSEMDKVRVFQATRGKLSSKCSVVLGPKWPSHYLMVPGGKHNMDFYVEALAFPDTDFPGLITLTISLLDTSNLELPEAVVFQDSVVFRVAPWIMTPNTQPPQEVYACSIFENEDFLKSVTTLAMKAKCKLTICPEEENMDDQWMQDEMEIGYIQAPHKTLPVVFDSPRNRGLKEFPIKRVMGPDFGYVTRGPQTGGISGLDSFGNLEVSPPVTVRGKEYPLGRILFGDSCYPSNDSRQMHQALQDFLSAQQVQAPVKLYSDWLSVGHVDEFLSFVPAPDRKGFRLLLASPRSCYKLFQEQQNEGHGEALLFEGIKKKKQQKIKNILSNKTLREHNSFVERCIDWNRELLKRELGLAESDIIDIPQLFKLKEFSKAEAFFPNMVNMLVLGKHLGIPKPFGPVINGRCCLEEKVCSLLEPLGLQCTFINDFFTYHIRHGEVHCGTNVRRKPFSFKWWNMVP
Assay: SPR, Biacore T200, biotin-labeled human PAD4 captured on chip, antibody as analyte, single-cycle, 1:1 model
Listing of recorded Kd by entry.

The cases that follow already have their Kd on record.
binder="anti-PAD4 antibody 2-1-47 (antibody, human IgG1, lambda, V domains shown, Lib2(4R)-1-47 with the 84th asparagine of the heavy chain substituted with serine; full-length IgG from ExpiCHO) VH: EVQLLESGGGLVQPGGSLRLSCAASGFTFSTYAMGWVRQAPGKGLEFVAAIRNDGSWTGYGTPYKTRFTISRDNSKNTLYLQMSSLRAEDTAVYYCAKYTGSSGGSIGAWGQGTLVTVSS VL: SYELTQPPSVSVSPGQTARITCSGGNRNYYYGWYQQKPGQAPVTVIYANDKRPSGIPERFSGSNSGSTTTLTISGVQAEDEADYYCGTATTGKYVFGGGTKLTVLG" measurement="31 pM"
binder="anti-PAD4 antibody 3-2-37 (antibody, human IgG1, lambda, V domains shown, Lib1(6R)-2-37 with the 84th asparagine of the heavy chain substituted with serine; full-length IgG from ExpiCHO) VH: EVQLLESGGGLVQPGGSLRLSCAASGFTFSTYAMGWVRQAPGKGLEFVAAIRNDGSWTGIGYNQKSRFTISRDNSKNTLYLQMSSLRAEDTAVYYCGKYTGSSGGSIGAWGQGTLVTVSS VL: SYELTQPPSVSVSPGQTARITCSGGNRNYYYGWYQQKPGQAPVTVIYANDKRPSGIPERFSGSNSGSTTTLTISGVQAEDEADYYCGTALTGKYVFGGGTKLTVLG" measurement="73 pM"
binder="anti-PAD4 antibody 4-2-25 (antibody, human IgG1, lambda, V domains shown, Lib2(5R)-2-25 with the 84th asparagine of the heavy chain substituted with serine; full-length IgG from ExpiCHO) VH: EVQLLESGGGLVQPGGSLRLSCAASGFTFSTYAMGWVRQAPGKGLEFVAAIRNDGSWTGYPPPLKGRFTISRDNSKNTLYLQMSSLRAEDTAVYYCAKYTGSSGGSIGAWGQGTLVTVSS VL: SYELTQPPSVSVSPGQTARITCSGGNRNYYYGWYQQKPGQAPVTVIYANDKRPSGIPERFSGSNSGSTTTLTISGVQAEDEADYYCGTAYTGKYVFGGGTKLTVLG" measurement="20 pM"

Kd for anti-PAD4 antibody 3-1-39 (antibody, human IgG1, lambda, V domains shown, Lib1(6R)-1-39 with the 84th asparagine of the heavy chain substituted with serine; full-length IgG from ExpiCHO) VH: EVQLLESGGGLVQPGGSLRLSCAASGFTFSTYAMGWVRQAPGKGLEFVAAIRNDGSWTGTSVNAKTRFTISRDNSKNTLYLQMSSLRAEDTAVYYCAKYTGSSGGSIGAWGQGTLVTVSS VL: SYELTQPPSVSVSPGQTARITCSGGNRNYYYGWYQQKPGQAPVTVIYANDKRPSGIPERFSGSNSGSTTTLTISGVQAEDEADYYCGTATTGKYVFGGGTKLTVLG ? 48 pM

Values were extracted from patent US20240309112A1.
